Tested on: Enterococcus faecium MDR Van A ATCC 51559
Experiment: MIC assay, E. faecium MDR Van A ATCC 51559
Assay type: cell-based
Details: 24 h incubation, visual reading
observed_property: Minimum Inhibitory Concentration (MIC) E. faecium ATCC51559

{"columns": ["molecule", "result_value"],
 "data": [
  ["CNC(=O)C(CCCCNC(=O)C1NC(=O)C2NC(=O)C(NC(=O)C3NC(=O)C(CC(N)=O)NC(=O)C(NC(=O)C(CC(C)C)NC)C(O)c4ccc(c(Cl)c4)Oc4cc3cc(c4OC3OC(CO)C(O)C(O)C3OC3CC(C)(N)C(O)C(C)O3)Oc3ccc(cc3Cl)C2O)c2ccc(O)c(c2)-c2c(O)cc(O)cc21)NC(=O)C(CCCCN)NC(=O)C(CCCCN)NC(=O)CCCOc1ccccc1 (stereo not drawn) [MCC_000505]", "x (x = >4)"],
  ["CNC(=O)C(CCCCNC(=O)C1NC(=O)C2NC(=O)C(NC(=O)C3NC(=O)C(CC(N)=O)NC(=O)C(NC(=O)C(CC(C)C)NC)C(O)c4ccc(c(Cl)c4)Oc4cc3cc(c4OC3OC(CO)C(O)C(O)C3OC3CC(C)(N)C(O)C(C)O3)Oc3ccc(cc3Cl)C2O)c2ccc(O)c(c2)-c2c(O)cc(O)cc21)NC(=O)C(CCCCN)NC(=O)C(CCCCN)NC(=O)c1ccc(Oc2ccc(F)cc2)cc1 (stereo not drawn) [MCC_000514]", "x (x = >4)"]
]}
